Taken from paper PMC8269116.

measurement target: DAT (Homo sapiens, UniProt Q01959)
Sequence (Q01959 whole entry): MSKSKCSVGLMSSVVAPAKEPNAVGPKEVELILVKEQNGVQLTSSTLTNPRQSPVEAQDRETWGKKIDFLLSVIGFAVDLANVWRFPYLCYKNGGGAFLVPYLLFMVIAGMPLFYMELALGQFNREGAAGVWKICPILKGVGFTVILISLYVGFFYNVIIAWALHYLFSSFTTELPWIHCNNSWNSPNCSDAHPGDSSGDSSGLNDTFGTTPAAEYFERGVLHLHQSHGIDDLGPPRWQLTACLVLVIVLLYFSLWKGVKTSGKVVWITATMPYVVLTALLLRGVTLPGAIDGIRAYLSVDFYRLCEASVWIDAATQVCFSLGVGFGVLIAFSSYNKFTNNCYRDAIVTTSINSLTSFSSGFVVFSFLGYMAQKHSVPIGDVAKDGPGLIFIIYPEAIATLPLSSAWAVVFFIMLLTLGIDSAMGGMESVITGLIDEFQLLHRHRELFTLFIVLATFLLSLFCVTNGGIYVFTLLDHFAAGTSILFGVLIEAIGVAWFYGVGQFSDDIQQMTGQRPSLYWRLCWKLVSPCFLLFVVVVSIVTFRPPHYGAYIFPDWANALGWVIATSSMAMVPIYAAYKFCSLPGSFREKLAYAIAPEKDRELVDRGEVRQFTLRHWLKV
assay explanation: Radioligand binding, [3H]WIN35,428 displacement
measurement setup: read-out: DAT Ki; mean±SD, n=3
experimental endpoint: pKi
Numbers only, as −log10 of the molar value.

Take a look at these entries with their results.
>>> recorded_number("CCCC(C(=O)c1ccc(O)c(OC)c1)N1CCCC1 (stereo not shown) [HMPV, 4-hydroxy-3-methyoxypyrovalerone]")
5.70
>>> recorded_number("CNC(C)C(=O)c1ccc(O)c(O)c1 (stereo not shown) [HHMC, 3,4-Dihydroxymethcathinone]")
5.15

Now consider a different compound.
Record CNC(C)Cc1ccc(O)c(O)c1 (stereo not shown) [HHMA, 3,4-dihydroxymethamphetamine] ; system DAT (Homo sapiens, UniProt Q01959); pKi = 5.72

---

measurement target: UniProtKB P28223
Sequence (P28223 whole entry): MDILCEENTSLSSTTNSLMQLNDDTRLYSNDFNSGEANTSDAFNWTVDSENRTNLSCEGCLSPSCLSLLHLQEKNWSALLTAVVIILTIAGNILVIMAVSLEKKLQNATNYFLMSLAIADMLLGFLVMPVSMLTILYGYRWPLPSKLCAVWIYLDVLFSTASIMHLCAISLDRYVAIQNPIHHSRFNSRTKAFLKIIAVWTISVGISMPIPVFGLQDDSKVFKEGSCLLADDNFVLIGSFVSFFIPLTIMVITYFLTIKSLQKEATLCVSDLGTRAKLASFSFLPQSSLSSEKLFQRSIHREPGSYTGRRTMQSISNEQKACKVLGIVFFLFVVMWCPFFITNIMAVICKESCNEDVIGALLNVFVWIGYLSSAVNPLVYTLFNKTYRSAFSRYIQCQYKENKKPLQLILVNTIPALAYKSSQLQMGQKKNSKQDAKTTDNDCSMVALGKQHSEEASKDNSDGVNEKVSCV
assay explanation: Radioligand binding, [3H]ketanserin displacement
experimental endpoint: Ki

>>> result("CC(N)Cc1ccc(O)c(O)c1 (stereo not shown) [HHA, 3,4-Dihydroxyamphetamine]")
"9.2 µM"

List Ki for every entry below, keeping the order given.
1. CNC(C)Cc1ccc2c(c1)OCO2 (stereo not shown) [MDMA, 3,4-Methylenedioxymethamphetmine, reference compound]
2. CC(N)Cc1ccc2c(c1)OCO2 (stereo not shown) [MDA, 3,4-methylenedioxyamphetamine, reference compound]

Response line:
1. 4.6 µM
2. 3.2 µM

Sure, the documented Ki for CNC(C)C(=O)c1ccc2c(c1)OCO2 (stereo not shown) [Methylone, 3,4-methylenedioxymethcathinone, reference compound] is > 12 µM

---

For each record, write down the corresponding Ki.
measurement target: rat TAAR1 (Rattus norvegicus)
Sequence (Q923Y9 whole entry): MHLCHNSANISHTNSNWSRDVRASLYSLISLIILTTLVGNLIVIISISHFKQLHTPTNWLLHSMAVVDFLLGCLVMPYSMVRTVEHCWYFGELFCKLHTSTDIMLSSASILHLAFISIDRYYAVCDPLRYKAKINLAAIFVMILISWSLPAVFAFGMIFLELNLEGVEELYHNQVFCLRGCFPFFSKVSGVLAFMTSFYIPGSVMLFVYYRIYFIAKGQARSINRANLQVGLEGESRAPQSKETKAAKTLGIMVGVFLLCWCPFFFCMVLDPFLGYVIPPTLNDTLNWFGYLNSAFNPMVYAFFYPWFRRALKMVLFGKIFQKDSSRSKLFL
assay explanation: Radioligand binding, [3H]RO5166017 displacement
measurement setup: read-out: TAAR1rat Ki; mean±SD, n=3
Give bare numbers, in nM.

Take a look at these entries with their results.
>>> recorded_number("CNC(C)C(=O)c1ccc(O)c(O)c1 (centres unmarked) [HHMC, 3,4-Dihydroxymethcathinone]")
2200
>>> recorded_number("CNC(C)Cc1ccc(O)c(O)c1 (centres unmarked) [HHMA, 3,4-dihydroxymethamphetamine]")
3000
>>> recorded_number("CNC(C)Cc1ccc(O)c(OC)c1 (centres unmarked) [HMMA, 4-hydroxy-3-methoxymethamphetamine]")
250

Now consider a different compound.
Sure, the documented Ki for COc1cc(CC(C)N)ccc1O (centres unmarked) [HMA, 4-hydroxy-3-methyoxyamphetamine] is 150

---

measurement target: NET (Homo sapiens, UniProt P23975)
Sequence (P23975 whole entry): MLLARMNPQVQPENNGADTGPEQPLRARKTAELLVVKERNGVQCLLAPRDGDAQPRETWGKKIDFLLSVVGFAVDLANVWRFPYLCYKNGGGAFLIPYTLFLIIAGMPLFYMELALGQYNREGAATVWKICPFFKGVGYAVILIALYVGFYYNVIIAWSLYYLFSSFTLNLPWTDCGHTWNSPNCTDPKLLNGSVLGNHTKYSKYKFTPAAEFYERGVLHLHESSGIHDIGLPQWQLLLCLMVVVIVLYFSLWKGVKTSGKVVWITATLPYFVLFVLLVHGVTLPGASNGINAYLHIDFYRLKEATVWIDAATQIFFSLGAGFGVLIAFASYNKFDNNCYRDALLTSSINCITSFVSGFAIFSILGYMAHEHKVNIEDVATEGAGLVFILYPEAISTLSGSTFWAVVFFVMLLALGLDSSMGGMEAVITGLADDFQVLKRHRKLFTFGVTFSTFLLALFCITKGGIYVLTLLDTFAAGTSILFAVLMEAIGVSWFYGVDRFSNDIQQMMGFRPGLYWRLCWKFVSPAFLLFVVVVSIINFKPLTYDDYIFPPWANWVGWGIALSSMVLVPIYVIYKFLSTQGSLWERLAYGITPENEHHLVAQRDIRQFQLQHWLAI
assay explanation: [3H]norepinephrine uptake inhibition in HEK 293 cells overexpressing human NET
experimental endpoint: pIC50
One number for each entry, as −log10 of the molar value.

>>> recorded_number("CNC(C)Cc1ccc2c(c1)OCO2 (stereo not shown) [MDMA, 3,4-Methylenedioxymethamphetmine, reference compound]")
6.42
>>> recorded_number("CC(N)Cc1ccc2c(c1)OCO2 (stereo not shown) [MDA, 3,4-methylenedioxyamphetamine, reference compound]")
6.42
>>> recorded_number("CC(N)Cc1ccc(O)c(O)c1 (stereo not shown) [HHA, 3,4-Dihydroxyamphetamine]")
6.74

Now consider a different compound.
Sure, the documented pIC50 for CNC(C)C(=O)c1ccc2c(c1)OCO2 (stereo not shown) [Methylone, 3,4-methylenedioxymethcathinone, reference compound] is 6.25

---

measurement target: UniProt P23975
assay explanation: Radioligand binding, N-methyl-[3H]nisoxetine displacement
For each record, write down the corresponding Ki.

>>> result("CC(N)Cc1ccc(O)c(O)c1 (stereo not shown) [HHA, 3,4-Dihydroxyamphetamine]")
"0.79 µM"

List Ki for every entry below, keeping the order given.
1. CC(N)Cc1ccc2c(c1)OCO2 (stereo not shown) [MDA, 3,4-methylenedioxyamphetamine, reference compound]
2. CNC(C)C(=O)c1ccc2c(c1)OCO2 (stereo not shown) [Methylone, 3,4-methylenedioxymethcathinone, reference compound]
3. CNC(C)Cc1ccc2c(c1)OCO2 (stereo not shown) [MDMA, 3,4-Methylenedioxymethamphetmine, reference compound]

Response line:
1. > 8.8 µM
2. > 8.7 µM
3. > 8.7 µM
